- Tested on: HOP-62 NSCLC
- Assay summary: NCI tumour cell line growth inhibition, 48 h
Please mark 1 if the recorded TGI is equal to or greater than 30 µM, and -1 if it falls below.

Completed entries (count: 3):
CN1C2C=CC(=O)C1C1C(=O)N(c3ccccc3)C(=O)C12 (configuration not stated)    -1
Cc1cc(N2CCC(N3CCCC3)CC2)nc(/N=C(\N)Nc2ccc(Cl)c(Cl)c2)n1    -1
COc1cc(-c2nc(-c3ccccc3)c(-c3ccccc3)[nH]2)cc(OC)c1O    1

Has CCN(CC)c1c(C(C)(C)C)c(=O)n2ccsc2c1OC(C)=O a recorded TGI greater than or equal to 30 µM?
-1

TGI >= 30 µM for O=C1c2cc3c(cc2NC(c2ccccc2F)C1O)OCO3 (configuration not stated) ?
1

Could you verify whether the entry Cc1ccc(-c2nc(NCCOCCOCCN)nc(N3CCN(c4ccccn4)CC3)n2)cc1 shows TGI of no less than 30 µM?
1

I'd appreciate it if you could say whether C=CCC(N[C@@H](CO)c1ccccc1)c1ccc2ccccc2n1 (some centres not stated) has TGI at least equal to 30 µM.
1

Is it the case that COC(=O)C1=NC(=S)NC(c2ccccc2)C1c1nc2ccccc2o1 (configuration not stated) has TGI reaching or exceeding 30 µM?
1
